# targetOrSystem: T1, T2 mechanosensitive channel from Thermoplasma volcanium, tag free (Thermoplasma volcanium)
# T1 construct: TVN0821, gene amplified from genomic DNA (DSM 4299 [GSS1*]); 297 amino acids per monomer; Cloned into pNIC28-Bsa4 (TEV site) and pET46 (Enterokinase site); In detergent (0.03 % DDM); also called T2 channel; tag free T2-channel; source: E. coli C43(DE3), purified (DDM solubilised, IMAC, tag cleavage, second IMAC, gel filtration); not shown: His-tag, N-terminal, cleaved
# T1 chain: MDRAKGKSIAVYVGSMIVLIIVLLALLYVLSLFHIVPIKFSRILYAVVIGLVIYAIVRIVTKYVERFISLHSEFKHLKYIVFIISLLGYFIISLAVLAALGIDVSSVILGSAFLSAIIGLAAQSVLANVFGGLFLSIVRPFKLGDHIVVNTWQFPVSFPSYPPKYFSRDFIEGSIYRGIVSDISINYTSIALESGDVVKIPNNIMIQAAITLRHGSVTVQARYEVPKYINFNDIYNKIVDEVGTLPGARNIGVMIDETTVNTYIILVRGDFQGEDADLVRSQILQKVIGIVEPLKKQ
# assayOverview: SPR; BIAcore 3000, 25 °C, 20 mM sodium phosphate pH 7.4, 150 mM NaCl, 0.03 % DDM; T2 channel amine-coupled on CM5 (1500 - 2000 RU); nanobodies 0.35 - 86.1 nM injected in triplicates; global fit to a simple bimolecular model, KD = kd/ka
# measurementContext: both partners purified
experimentalReadout: kon (M⁻¹ s⁻¹)
Respond numerically; units are M⁻¹ s⁻¹ and should not be typed.

- binder: "nanobody 9 (VHH, pHEN6 vector; also called Nb 9; CA-number 3390; source: E. coli WK6 periplasm, purified (IMAC, gel filtration); not shown: His-tag, C-terminal, kept) VHH: QVQLQESGGGLVQPGGSLRLSCAASGSIFGINAMGWYRRPPGKQRELVAVITSGGSTNYADSVKGRFTISRGNAKNTVYLQMNSLKAEDTAVYYCNAYTDFVRPYNHWGQGTQVTVSS"
  displayUnit: "M⁻¹ s⁻¹"
  kon: "3.1e+06"

Proceed to the following item.
Please fill in: kon reported for nanobody 20 (VHH, pHEN6 vector; also called Nb 20; CA-number 3403; source: E. coli WK6 periplasm, purified (IMAC, gel filtration); not shown: His-tag, C-terminal, kept) VHH: QVQLQESGGGLVQPGGSLRLSCAASGNIFGINSMDWYRQAPGKQRELVATITSGGSTNYGDSVKGRFTISRDNAKNTMYLQMNSLKPEDTAVYYCHAVLSTRGGYWGQGTQVTVSS = 1.03e+06
